These measurements were taken from patent US20260274955A1.

Target: T1, Ab-1
T1 construct: also called anti-CD28 scFv harbored in Ab-1
T1 sequence (heavy, as listed by the source, chain 1 of 2): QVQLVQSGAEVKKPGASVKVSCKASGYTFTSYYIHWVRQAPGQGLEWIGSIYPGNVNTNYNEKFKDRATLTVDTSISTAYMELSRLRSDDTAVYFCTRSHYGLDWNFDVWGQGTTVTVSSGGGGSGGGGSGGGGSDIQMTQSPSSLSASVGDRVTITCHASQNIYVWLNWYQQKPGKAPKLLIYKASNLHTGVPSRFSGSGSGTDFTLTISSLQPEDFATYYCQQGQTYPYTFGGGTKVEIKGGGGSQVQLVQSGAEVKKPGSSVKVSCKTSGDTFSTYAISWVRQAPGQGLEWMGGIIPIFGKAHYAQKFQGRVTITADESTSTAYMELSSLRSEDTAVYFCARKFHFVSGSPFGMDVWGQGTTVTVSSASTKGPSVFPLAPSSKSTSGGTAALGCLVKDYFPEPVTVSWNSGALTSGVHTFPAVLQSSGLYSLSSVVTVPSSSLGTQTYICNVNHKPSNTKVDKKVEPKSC
T1 sequence (light, as listed by the source, chain 2 of 2): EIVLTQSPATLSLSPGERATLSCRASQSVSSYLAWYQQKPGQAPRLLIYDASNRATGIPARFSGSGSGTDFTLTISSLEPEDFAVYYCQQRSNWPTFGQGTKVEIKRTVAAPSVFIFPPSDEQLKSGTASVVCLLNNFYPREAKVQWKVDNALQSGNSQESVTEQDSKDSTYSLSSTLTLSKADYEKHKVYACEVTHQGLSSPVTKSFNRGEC
Assay: binding ELISA, peptide captured, Ab-1 titrated
No end group written: not given here.
EC50 strictly under 50 nM means rule met; at 50 nM or over means rule not met.

>>> discrete_label("LDWCPRDLWVHCFA (cysteine pairing not given here; also: biotinylated, site not given here) [Peptide-11]")
"rule met"
>>> discrete_label("HDWCPRDLWVHCFA (cysteine pairing not given here; also: biotinylated, site not given here) [Peptide-9]")
"rule met"
>>> discrete_label("EDWCPRDLWVHCFA (cysteine pairing not given here; also: biotinylated, site not given here) [Peptide-7]")
"rule met"
>>> discrete_label("MDWCPRDLWVHCFA (cysteine pairing not given here; also: biotinylated, site not given here) [Peptide-1]")
"rule met"
>>> discrete_label("IDWCPRDLWVHCFA (cysteine pairing not given here; also: biotinylated, site not given here) [Peptide-10]")
"rule met"
>>> discrete_label("WDWCPRDLWVHCFA (cysteine pairing not given here; also: biotinylated, site not given here) [Peptide-17]")
"rule met"
>>> discrete_label("RDWCPRDLWVHCFA (cysteine pairing not given here; also: biotinylated, site not given here) [Peptide-3]")
"rule met"
>>> discrete_label("YDWCPRDLWVHCFA (cysteine pairing not given here; also: biotinylated, site not given here) [Peptide-18]")
"rule met"
>>> discrete_label("FDWCPRDLWVHCFA (cysteine pairing not given here; also: biotinylated, site not given here) [Peptide-13]")
"rule met"
>>> discrete_label("TDWCPRDLWVHCFA (cysteine pairing not given here; also: biotinylated, site not given here) [Peptide-16]")
"rule met"
>>> discrete_label("PDWCPRDLWVHCFA (cysteine pairing not given here; also: biotinylated, site not given here) [Peptide-14]")
"rule not met"
>>> discrete_label("KDWCPRDLWVHCFA (cysteine pairing not given here; also: biotinylated, site not given here) [Peptide-12]")
"rule met"
>>> discrete_label("SDWCPRDLWVHCFA (cysteine pairing not given here; also: biotinylated, site not given here) [Peptide-15]")
"rule not met"
>>> discrete_label("NDWCPRDLWVHCFA (cysteine pairing not given here; also: biotinylated, site not given here) [Peptide-4]")
"rule not met"
>>> discrete_label("GDWCPRDLWVHCFA (cysteine pairing not given here; also: biotinylated, site not given here) [Peptide-8]")
"rule not met"
>>> discrete_label("ADWCPRDLWVHCFA (cysteine pairing not given here; also: biotinylated, site not given here) [Peptide-2]")
"rule not met"
>>> discrete_label("QDWCPRDLWVHCFA (cysteine pairing not given here; also: biotinylated, site not given here) [Peptide-6]")
"rule met"
>>> discrete_label("DDWCPRDLWVHCFA (cysteine pairing not given here; also: biotinylated, site not given here) [Peptide-5]")
"rule not met"
>>> discrete_label("VDWCPRDLWVHCFA (cysteine pairing not given here; also: biotinylated, site not given here) [Peptide-19]")
"rule met"
